Listing of entries alongside the reported koff.
- measurement-target: T1, human KLRB1 protein extracellular domain (ECD) (human, UniProt Q12918 67-225)
- T1 construct: range 67-225; The ELISA and SPR text says only 'human KLRB1 ECD'; also called human KLRB1 ECD; CD161
- T1 sequence (looked up): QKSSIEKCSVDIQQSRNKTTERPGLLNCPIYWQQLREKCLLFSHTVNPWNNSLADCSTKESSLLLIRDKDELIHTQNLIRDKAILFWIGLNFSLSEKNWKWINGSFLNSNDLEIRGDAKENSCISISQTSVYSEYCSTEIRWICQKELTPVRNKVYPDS
- protocol-text: SPR, human KLRB1 ECD; format not stated

Would you please look over these solved cases?
10A3D6hum2.2 (antibody, human IgG1, kappa, V domains shown, copies: 2 + 2) VH: QVQLVQSGAEVKKPGASVKVSCKASGYSFTGYTMNWVRQAPGQNLEWIGLINPNTGGTYYNQKFKDRVTLTVDTSISTAYMELSRLRSDDTAVYYCARLGDNYRGYFDSWGQGTTVTVSS VL: DIQLTQSPSFLSASVGDRVTITCKASQDVGTAVVWYQQKPGKAPKLLIDWASIRHTGVPSRFSGSGSGTEFTLTISSLQPEDFADYFCQQYSTYLYTFGGGTKLEIKR	0.000139 s⁻¹
10A3D6C109F-chimeric (antibody, human IgG1, V domains shown, Chimeric mutated variant; the name hIgG1k indicates human IgG1 kappa constant regions; also called 10A3D6C109FhIgG1k) VH: EVQLQQSGPELVKPGASMKISCKASGYSFTGYTMNWVKQSHGKNLEWIGLINPNTGGTYYNQKFKDKATLTVDKSSSTAYMELLSLTSEDSAVYYCARLGDNYRGYFDFWGQGTTLTVSS VL: DIVMTQSHKFMSTSVGDRVNITCKASQDVGTAVVWYQQTPGQSPKVLIDWASIRHTGVPDRFTGSGSGTDFTLTISSVQSEDLADYFCQQYSTYLYTFGGGTKLEIK	0.000336 s⁻¹
10A3D6C109Chum1.2 (antibody, V domains shown, Humanized variant of 10A3D6 made by CDR grafting) VH: QVQLVQSGAEVKKPGASVKVSCKASGYSFTGYTMNWVRQAPGQGLEWMGLINPNTGGTYYNQKFKDRVTMTRDTSISTAYMELSRLRSDDTAVYYCARLGDNYRGYFDCWGQGTTVTVSS VL: DIQLTQSPSFLSASVGDRVTITCKASQDVGTAVVWYQQKPGKAPKLLIDWASIRHTGVPSRFSGSGSGTEFTLTISSLQPEDFADYFCQQYSTYLYTFGGGTKLEIK	9.35e-05 s⁻¹
10A3D6C109Chum4.4 (antibody, V domains shown, Humanized variant of 10A3D6 made by CDR grafting) VH: QVQLVQSGAEVKKPGASVKVSCKASGYSFTGYTMNWVRQAHGQNLEWIGLINPNTGGTYYNQKFKDRATLTVDTSISTAYMELSRLRSDDTAVYYCARLGDNYRGYFDCWGQGTTVTVSS VL: DIQLTQSPSFLSASVGDRVTITCKASQDVGTAVVWYQQTPGKAPKLLIDWASIRHTGVPDRFSGSGSGTEFTLTISSLQPEDFADYFCQQYSTYLYTFGGGTKLEIK	9.88e-05 s⁻¹

Look up koff for this binder: 10A3D6C109Chum1.4 (antibody, V domains shown, Humanized variant of 10A3D6 made by CDR grafting) VH: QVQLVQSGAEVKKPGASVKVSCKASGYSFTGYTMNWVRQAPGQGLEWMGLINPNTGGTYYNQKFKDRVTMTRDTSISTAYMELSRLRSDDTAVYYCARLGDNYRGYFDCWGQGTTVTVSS VL: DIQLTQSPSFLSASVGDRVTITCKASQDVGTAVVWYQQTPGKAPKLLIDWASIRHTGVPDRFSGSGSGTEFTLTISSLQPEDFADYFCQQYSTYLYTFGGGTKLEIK
8.6e-05 s⁻¹

Provenance of the data: patent US20250270328A1
